target: human CD33 E337A (human, UniProt P20138 18-364); experiment: flow cytometry, alanine scan
Sequence (P20138 18-364 E337A limits assumed): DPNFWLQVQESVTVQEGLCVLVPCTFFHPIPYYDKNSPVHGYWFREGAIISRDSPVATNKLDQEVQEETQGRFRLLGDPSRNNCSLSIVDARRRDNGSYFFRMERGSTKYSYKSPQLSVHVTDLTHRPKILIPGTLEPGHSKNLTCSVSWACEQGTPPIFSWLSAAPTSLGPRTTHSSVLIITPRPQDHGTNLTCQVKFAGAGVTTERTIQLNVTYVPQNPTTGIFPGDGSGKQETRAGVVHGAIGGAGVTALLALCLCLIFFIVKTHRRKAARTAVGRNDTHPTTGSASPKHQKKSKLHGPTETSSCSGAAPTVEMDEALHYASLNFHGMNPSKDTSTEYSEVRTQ
Assay Metric: Mean % WT Binding

So what's the measured Mean % WT Binding for this one? Refmab #3 (antibody, V domains shown, The alanine scan used IgG or Fab) VH: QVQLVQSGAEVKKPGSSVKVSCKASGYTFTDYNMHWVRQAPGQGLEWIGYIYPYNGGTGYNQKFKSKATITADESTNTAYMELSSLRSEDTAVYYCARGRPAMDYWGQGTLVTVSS VL: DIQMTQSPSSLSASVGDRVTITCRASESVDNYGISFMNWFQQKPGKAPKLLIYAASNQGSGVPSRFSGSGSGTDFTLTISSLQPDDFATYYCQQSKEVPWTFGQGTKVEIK
114 % of WT
